- TARGET OR TEST SYSTEM: SU receptor (Mus musculus, UniProt B2RUS7)
- Construct: the pancreatic islets isolated from the mice were dispersed into single cells; from tissue; host or cells: single cells dispersed from isolated mouse pancreatic islets
- Sequence (B2RUS7 1-1588): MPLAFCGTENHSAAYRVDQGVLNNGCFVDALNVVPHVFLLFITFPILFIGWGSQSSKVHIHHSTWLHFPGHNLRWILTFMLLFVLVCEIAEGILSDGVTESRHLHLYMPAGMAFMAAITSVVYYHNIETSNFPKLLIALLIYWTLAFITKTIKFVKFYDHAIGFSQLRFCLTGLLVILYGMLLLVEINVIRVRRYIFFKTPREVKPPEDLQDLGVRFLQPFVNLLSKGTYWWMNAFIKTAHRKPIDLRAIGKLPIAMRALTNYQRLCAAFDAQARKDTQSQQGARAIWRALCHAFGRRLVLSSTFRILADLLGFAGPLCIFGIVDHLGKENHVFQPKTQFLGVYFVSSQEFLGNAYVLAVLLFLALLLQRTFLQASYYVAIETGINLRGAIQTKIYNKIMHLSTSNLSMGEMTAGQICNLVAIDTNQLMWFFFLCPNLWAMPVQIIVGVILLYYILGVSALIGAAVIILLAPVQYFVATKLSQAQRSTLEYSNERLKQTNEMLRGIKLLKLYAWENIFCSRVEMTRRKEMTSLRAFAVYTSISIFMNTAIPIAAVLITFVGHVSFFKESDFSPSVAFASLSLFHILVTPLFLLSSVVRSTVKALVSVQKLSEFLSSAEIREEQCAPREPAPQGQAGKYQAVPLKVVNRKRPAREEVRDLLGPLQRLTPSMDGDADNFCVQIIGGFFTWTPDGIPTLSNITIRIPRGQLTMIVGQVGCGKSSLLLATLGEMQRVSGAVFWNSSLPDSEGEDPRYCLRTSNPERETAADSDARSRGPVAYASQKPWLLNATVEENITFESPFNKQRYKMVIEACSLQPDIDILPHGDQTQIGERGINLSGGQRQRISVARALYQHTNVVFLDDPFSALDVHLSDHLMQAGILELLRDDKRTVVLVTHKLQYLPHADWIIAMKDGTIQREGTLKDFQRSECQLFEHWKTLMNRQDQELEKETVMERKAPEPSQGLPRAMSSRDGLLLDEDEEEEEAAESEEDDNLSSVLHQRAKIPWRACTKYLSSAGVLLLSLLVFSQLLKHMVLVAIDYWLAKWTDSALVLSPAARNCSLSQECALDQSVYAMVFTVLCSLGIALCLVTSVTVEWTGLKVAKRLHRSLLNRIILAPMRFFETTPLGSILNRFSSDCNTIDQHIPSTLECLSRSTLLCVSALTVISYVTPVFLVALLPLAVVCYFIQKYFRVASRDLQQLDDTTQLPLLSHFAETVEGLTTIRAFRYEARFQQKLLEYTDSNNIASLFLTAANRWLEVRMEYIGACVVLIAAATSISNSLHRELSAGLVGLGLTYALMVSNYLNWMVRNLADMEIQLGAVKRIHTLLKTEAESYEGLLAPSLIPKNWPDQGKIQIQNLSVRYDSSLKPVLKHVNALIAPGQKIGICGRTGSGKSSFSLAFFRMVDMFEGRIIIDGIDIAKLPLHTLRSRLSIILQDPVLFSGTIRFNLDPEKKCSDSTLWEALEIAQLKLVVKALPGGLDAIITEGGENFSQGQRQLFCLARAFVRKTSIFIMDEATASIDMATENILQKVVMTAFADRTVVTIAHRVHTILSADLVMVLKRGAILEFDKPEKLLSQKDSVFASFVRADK
- Sequence (Q61743 whole entry partner): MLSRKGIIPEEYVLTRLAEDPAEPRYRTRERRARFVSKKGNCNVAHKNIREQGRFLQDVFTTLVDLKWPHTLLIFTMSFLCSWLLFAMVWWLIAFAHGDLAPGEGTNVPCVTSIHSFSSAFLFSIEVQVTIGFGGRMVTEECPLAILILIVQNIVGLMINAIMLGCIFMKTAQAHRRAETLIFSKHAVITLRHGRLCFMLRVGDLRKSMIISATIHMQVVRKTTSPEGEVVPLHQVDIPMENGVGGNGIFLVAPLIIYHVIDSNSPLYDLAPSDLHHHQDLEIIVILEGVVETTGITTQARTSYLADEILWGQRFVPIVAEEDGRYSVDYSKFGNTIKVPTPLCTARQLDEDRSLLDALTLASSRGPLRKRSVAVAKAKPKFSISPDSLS
- MEASUREMENT DESCRIPTION: SU receptor binding experiment ([3H]-glibenclamide displacement on dispersed pancreatic islet cells)
- Parameters: species or system mice
- SETUP CONDITIONS: inhibition of [3H]-glibenclamide (1.85 pmol/L) binding, mouse islet cells 1.7×10^5 cells/sample, room temperature, 1 hour
OBSERVABLE: EC50

Query `O=C(O)[C@H](CC(=O)N1C[C@H]2CCCC[C@H]2C1)Cc1ccc(OCCF)cc1` on SU receptor (Mus musculus, UniProt B2RUS7); EC50 returned: 23.5 nM
